# Tested on: DU-145
# ASSAY PROCEDURE: Cytotoxicity against human DU145 cells
# Format: functional
# SETTINGS: read-out: ED50 (the source's name)
Kindly supply the reported pEC50 values for the records listed here.
pEC50 here is simply -log10 of the concentration when that concentration is written in mol/L.

Q: Please report the recorded pEC50 for `COc1ccc(/C=C/C(=O)c2ccccc2)c(OC(=O)[C@@]2(C)CC[C@]3(C)CC[C@]4(C)C(=CC(=O)[C@@H]5[C@@]6(C)CC[C@H](O)C(C)(C)[C@@H]6CC[C@]54C)[C@@H]3C2)c1` .
Ans: 4.89

Q: Please report the recorded pEC50 for `COc1cc(/C=C/C(C)=O)ccc1OC(=O)[C@@]1(C)CC[C@]2(C)CC[C@]3(C)C(=CC(=O)[C@@H]4[C@@]5(C)CC[C@H](O)C(C)(C)[C@@H]5CC[C@]43C)[C@@H]2C1` .
Ans: 5.51
